assay: yeast display, Sf9 membrane polyspecificity reagent, FACS + sequencing; frameworks hold sequencing errors
Experimental Endpoint: polyreactivity (PSR sort gate)

[[record]]
chain = "QVQLVESGGGLVQAGGSLRLSCAASGSIFNKYAMGWYRQAPGKERELVAAISVSGTRTYYADSVKGRFTISRDNAKNTVYLQMNSLKPEDTAVYYCAAGGVGAYDYWGQGTQVTVSS"
experimental_endpoint = "polyreactivity (PSR sort gate)"
result = "high polyreactivity"

[[record]]
chain = "QVQLVESGGGLVQAGGSLRLSCAASGSPFRRYAMGWYRQAPGTERELVAAISWRGGSTRYADSVKGRFTLSRDNAKNTVYLQMNSLKPEDTAVYYCAALGSYGNPPSYNYWGQGTQVTVSS"
experimental_endpoint = "polyreactivity (PSR sort gate)"
result = "high polyreactivity"


----------
assay: yeast display, Sf9 membrane polyspecificity reagent, FACS + sequencing; frameworks hold sequencing errors
Experimental Endpoint: polyreactivity (PSR sort gate)

[[record]]
chain = "QVQLVESGGGLVQEGGSLRLSCAASGRTFSYNAMGWYSQAPGKERELFAAITGRGGSTYYADSVKGRFTISRDNAKKTVYLQMNRLKPEVTAVYYCNAVDAGYHRDRDYWGLGTQVTVSS"
result = "low polyreactivity"

[[record]]
chain = "QVQHVESGGGLVQAGGSLRLSCAASGRTFGYNDMGWSRQAHGKERELVATISWGGGSTYYADSVKWRFTISRDNAKNTVYLQMNSLKAEDTAVYYCNKVHFGRRHSYSGAIYGEDYWGLGTQVTVSS"
result = "high polyreactivity"

[[record]]
chain = "QVQLVESGGGLVQAGGSLRLSCAASGRTFQYYAMGWYRQAPGKEREFVAAISRSGGSTYYADSVKGRFTISRDNAKNTVYLQMNSLKPEDTAVYYCAADAYRSSYDYWGQGTQVTVSS"
result = "low polyreactivity"

[[record]]
chain = "QVQLVESGGGLVQARGSLRLSCAASGRIFWSNAMGWYRQAPGKERELVAAISYSGDSTYYADSVKGRFTISRDNAKNTVYIQMKSLKPEDTAVYYCTAVGHRSYRYDYWGQGTQVTVSS"
result = "high polyreactivity"

[[record]]
chain = "QVQLVESGGGLVQAGGSLRLSCAASGLIFKGYVMGWYRQAPGKERELVAAISRRGGSTYYADSVKGRFTISRDNAKNTVYLQMNSLKPEDTAVYYCATEVYDIDGWWGYDYWGQGTQVTVSS"
result = "high polyreactivity"

[[record]]
chain = "QVQLVESGGGLVQAGGSLRLSCAASGSTFYSNSMGWYRQAPGKERELVAAIDWGGGSTYYADSVKGRFTISRDNETNTVYLQMNSLKPEDTAVYYCAKKYYKVHKFDYWGQGNQVTVSS"
result = "low polyreactivity"

[[record]]
chain = "QVQLVESGGGLVQAGGRLRLSCAASGRTFFQYAMGWYRQAPGKERELVAAIRCSDSTYYADSVKGRFTISRDNAKNTVYLQMNSLKPEDTAVYYCAVRAYREFLPIVYKWWWERDHWGQGTQVTVSS"
result = "low polyreactivity"

[[record]]
chain = "QVQLVESGGGLVQAGGSLRLSCAASGRIFTAYAMVWYRPAPGKERELVAAISSGDSTYYADSVKGRFTISRDNAKNTVYLQKNSLKPEETAVYSCATGVYPDFEYDSWGQGTQVTVSS"
result = "low polyreactivity"

[[record]]
chain = "QVQLVESGGGLVQAGGSLRLICAASGFIFWDNAMGWYRQAPGKERELVAAISKSGTRTYYADSVKGRFTISRDNEKNTVYLQMNSLKPEDTAVYYCAAEGSGYEYYYWGQGTQVTVSS"
result = "high polyreactivity"

[[record]]
chain = "QVQLVESGGGLVQAGGSLRLSCAASGLTFNRNAMGWYRQAPGKERELVARISRGGSTNYADSVKGRFTISRDNAKNTVYLQMNSLKPEDTAVYYCAKRGNPRSVVHYNSWGQGTQVTVSS"
result = "high polyreactivity"

[[record]]
chain = "QVQLVESGGGLVQAGGSLRLSCAASGRTFVVNAMGWYRQAPGKEREFVAAISYRGDSTYYADSVKGRFTISRDNAKNTVYLQMNSLKPEDTAVYYCAAQYRYGRYTRDYWGQGTQVTVSS"
result = "high polyreactivity"

[[record]]
chain = "QVQLVESGGGLVQAGGSLRLSCAASGRIFRDYDMGWYRKAPGKEWELVAAITYRGGSTYYADSVKGRFTISRDNAKNTVYLQINSLKPEDTAVYYCAAGSRSPHWYTRELDYWVQGTQVTVSS"
result = "low polyreactivity"

[[record]]
chain = "QVQLVESGGGLVQAGGSLRLSCAASGRIFWWYAMGWYRQAPGKERELVAAISTGSRTYYADSVKGRFTISRDNAKNTVYLQMNSLKPEDTAVYYCNKDYWYGYSDFDYWGQGTQVTVSS"
result = "low polyreactivity"

[[record]]
chain = "QVQLVESGGGLVQAGGSLRISCAASGITFGRYTMGWYRQAPGKERELVAAITNGDITYYADSVKGRFTISRDNAKNTVYLQMNSLKPDDTAVYYCAADRYFWYDYWGQATQVTVSS"
result = "high polyreactivity"

[[record]]
chain = "QVQLVESGGGLDQAGGSLPLSCAASGITSYVYAMRWYRQAPGKERELVASISWTGGNTYADSVKGRFTISRDNAKNTVYLPMNSLKPEDTAVYYCNAGRSWDYWYGYDYWGQGTQVTVSS"
result = "low polyreactivity"

[[record]]
chain = "QVQLVESGGGLVQAGGSLRLSCAASGIIFDDYAMGWYRQAPGKERELVAAISVSGGSTYNADSVKGRFTISRDNAKNTVYLQMNSLKPEDTAVYYCAARLIVGRFLRYDYWGQGTQVTVSS"
result = "high polyreactivity"

[[record]]
chain = "QVQLVESGGGLVQAGGSLRLSCAASGRTLVLNMGWYRPAPGKERELVATINSGGSTYYADSVKGRFTISRDNAKNTVYLQMNSLKPEDTAVYYCAVLSSDGKFDYWGQGTQVTVSS"
result = "low polyreactivity"

[[record]]
chain = "QVQLVESGGGLVQAGGSLRLSCAASGSTFRQNAMGWYRQAPGKERELVAAISSIGDSTNYADSVKGRFTISRDNAKNTVYLQMNSLKPEDTAVYYCAARTVQQRRRLYYWGQGTQVTVSS"
result = "high polyreactivity"

[[record]]
chain = "QVQLVESGGGLVQAGGSLRLSCPASGRIFGYNSMGWYRQAPGKEREMVATMSSGGGSNYADSVKGRFTISRDNAKNTVYLQMKSLKPEDTAVFYCAADLFLDGSSLYAPNWWPDGWNTYRVLGGYWGQGTQVTVSS"
result = "low polyreactivity"

[[record]]
chain = "QVQLVESGGGLVQAGGSLRLSCAASGSIFYTYAMGWYRQAPGKERELVAAISRSGGSTYYADSVKGRFTISRDNAKNTVYVQMNSLKPEETAVYYCAAVSYRGRGYWGQGTQVTVSS"
result = "high polyreactivity"

[[record]]
chain = "QVQLVESAGGLVQAGGSLSLSCAASGSIFWSYAMGWYRQAPGKERELVAVINWSGGSTYYADSVKGRFTISRDNAKNTVYLQMNSLKPEDTAVYYCNKDLGPTKRPFTFDYWGQGTQVTVSS"
result = "low polyreactivity"

